Consider the following compounds; for each one, report its hERG current change (%, negative = inhibition) at 10uM.
Biological target: human ether-à-go-go-related gene (hERG) potassium channel (human, UniProt Q12809);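 also: peak tail current of the secondary pulse compared with the same well before compound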
Sequence (Q12809 whole entry, looked up): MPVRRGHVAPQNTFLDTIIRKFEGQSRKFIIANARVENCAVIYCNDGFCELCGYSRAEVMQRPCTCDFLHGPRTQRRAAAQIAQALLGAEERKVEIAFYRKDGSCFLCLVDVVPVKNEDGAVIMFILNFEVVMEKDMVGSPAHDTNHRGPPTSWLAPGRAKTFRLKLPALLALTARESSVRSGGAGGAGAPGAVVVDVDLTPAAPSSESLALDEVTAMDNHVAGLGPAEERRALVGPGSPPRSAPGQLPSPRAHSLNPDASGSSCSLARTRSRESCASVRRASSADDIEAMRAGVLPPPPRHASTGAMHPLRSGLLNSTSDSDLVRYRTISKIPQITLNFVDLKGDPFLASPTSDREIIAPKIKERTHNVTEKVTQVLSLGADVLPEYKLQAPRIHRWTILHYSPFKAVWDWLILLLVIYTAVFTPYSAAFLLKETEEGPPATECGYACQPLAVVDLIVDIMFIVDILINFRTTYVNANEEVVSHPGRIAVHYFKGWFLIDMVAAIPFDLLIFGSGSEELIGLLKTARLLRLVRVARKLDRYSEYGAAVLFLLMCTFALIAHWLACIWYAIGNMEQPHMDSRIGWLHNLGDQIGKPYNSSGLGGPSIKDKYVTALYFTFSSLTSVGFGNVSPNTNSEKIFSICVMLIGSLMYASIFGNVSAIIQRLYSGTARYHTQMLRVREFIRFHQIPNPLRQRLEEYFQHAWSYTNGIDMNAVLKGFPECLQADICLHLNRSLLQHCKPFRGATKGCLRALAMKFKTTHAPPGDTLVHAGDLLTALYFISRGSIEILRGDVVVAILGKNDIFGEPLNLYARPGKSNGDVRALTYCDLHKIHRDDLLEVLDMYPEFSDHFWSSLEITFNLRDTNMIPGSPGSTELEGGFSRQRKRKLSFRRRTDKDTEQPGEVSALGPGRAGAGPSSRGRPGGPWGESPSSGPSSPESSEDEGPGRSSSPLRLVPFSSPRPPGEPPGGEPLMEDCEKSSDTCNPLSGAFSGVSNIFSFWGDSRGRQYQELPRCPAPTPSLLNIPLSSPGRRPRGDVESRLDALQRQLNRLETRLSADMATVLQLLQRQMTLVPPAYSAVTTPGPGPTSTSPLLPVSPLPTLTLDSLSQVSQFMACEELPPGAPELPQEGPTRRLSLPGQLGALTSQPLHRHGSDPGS
Test: primary screen, population patch clamp on CHO cells stably expressing hERG; higher = less effect of the substance
Hit rate of the full screen: of about 310,000 compounds, about 14,000 (4.5%) showed an effect of 50% or more. The effect is printed as a negative number. The full list was thinned out, with strong results kept by preference.
Answers are plain numbers, in %.

Please review the entries below; each comes with its answer.
> print(dat)
                                   compound  readout.value
1  Cc1cc(-c2ccccc2)nc(N(C)NC(=O)c2ccc(Cl)cc2)c1S(C)(=O)=O          0.236
2         S=C(NCc1ccccc1)N1CCN(C2CCCCC2)CC1          -62.6
3  O=C(c1ccccc1)N1CCN(C(=S)NCc2ccc3c(c2)OCO3)CC1          -59.4
4  COc1ccc(C(=O)Nc2c3c(nn2C(C)(C)C)CS(=O)(=O)C3)cc1OC           13.1
5  CC(=O)Nc1ccc(S(=O)(=O)N(Cc2cccnc2)Cc2cc3ccccc3[nH]c2=O)cc1           11.4
6  CCCc1nnc(SCC(=O)N(CC)CC)n1CC1CCCO1 (centres unmarked)           21.9
7  O=C(Nc1cccc(S(=O)(=O)N2CCOCC2)c1)c1ccccc1[N+](=O)[O-]          0.195
8  COc1ccc(C(CCN(Cc2ccc(OC)c(OC)c2)C(C)=O)C(C)C)cc1 (centres unmarked)          -52.3

# per-item lookup of hERG current change (%, negative = inhibition) at 10uM; items listed below
1. Cc1ccc(C(=O)N2CCN(C34CC5CC(CC(C5)C3)C4)CC2)o1
2. CC(C)Oc1ccc(CNC(=O)CC(c2ccccc2)c2cc(Cl)ccc2O)cc1 (centres unmarked)
3. COC(=O)/C(=C\Nc1ccc(Cl)cc1Cl)NC(=O)c1ccccc1
4. O=C(CSc1nnc(-c2ccco2)o1)NC1CC2CCC1C2 (centres unmarked)
5. O=C(Cc1ccc(NS(=O)(=O)c2ccc(F)cc2)cc1)NCc1ccccc1
6. CCOc1ccc(NC(=S)NCCCN2CCN(C3CCCCC3)CC2)cc1
7. CC(=O)c1ccc(N2CCN(c3ccc(S(=O)(=O)NCCN(C)C)cc3[N+](=O)[O-])CC2)cc1

1: -29.4; 2: 11.8; 3: -4.83; 4: -2.05; 5: -16.4; 6: -47.2; 7: -23.2

====

Biological target: human ether-à-go-go-related gene (hERG) potassium channel (human);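 also: peak tail current of the secondary pulse compared with the same well before compound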
Assay: primary screen, population patch clamp on CHO cells stably expressing hERG; higher = less effect of the substance
Hit rate of the full screen: of about 310,000 compounds, about 14,000 (4.5%) showed an effect of 50% or more. Effects have a minus sign here. This is one part of a sample in which strong results are shown more often than they occur.
parameter: hERG current change (%, negative = inhibition) at 10uM (%)
Give bare numbers, in %.

Please review the entries below; each comes with its answer.
> print(dat)
                                   molecule  readout.value
1  CCOCCCNC(=S)Nc1ccc2nc(N3CCN(CC)CC3)cc(C)c2c1           4.36
2          Cc1ccc(C(=O)NCCCN2CCOCC2)c(Cl)c1             13
3   CNc1nc(-c2ccc(OC)cc2)c(-c2ccc(OC)cc2)s1          -12.7

# per-item lookup of hERG current change (%, negative = inhibition) at 10uM; items listed below
1. CCNc1nc(-c2ccc(OC(F)F)cc2)c(C)s1
2. CCC/C=C(\CCC)C(NS(=O)(=O)c1ccc(C(F)(F)F)cc1)c1ccccc1 (stereo not shown)
3. CCN(CC)CCNC(=S)Nc1ccc2nc(N3CCCC3)cc(C)c2c1
4. Br.COc1ccc(-c2nc(NC3=NCCCCC3)sc2C)cc1
5. CCN(CC)CCNc1nc(-c2ccc(OC)cc2)c(-c2ccc(OC)cc2)s1

1. 15.1
2. 15.5
3. -8.93
4. -26.6
5. -52.6

# per-item lookup of hERG current change (%, negative = inhibition) at 10uM; items listed below
1. COCCNC(=S)Nc1ccc2nc(N3CCCC3)cc(C)c2c1
2. CCOCCCNC(=S)Nc1ccc2nc(N3CCOCC3)cc(C)c2c1

[-71.6, -7.68]

meta.source: paper PMC4336329
